Target: truncated His-MBP-Tev-KLHDC2 (residues 1-363) (Homo sapiens, UniProt Q9Y2U9)
Construct: truncated His -MBP-Tev-KLHDC2 (residues 1-363) purified from E. coli; made in house; host or cells: E. coli
Sequence (Q9Y2U9 1-363): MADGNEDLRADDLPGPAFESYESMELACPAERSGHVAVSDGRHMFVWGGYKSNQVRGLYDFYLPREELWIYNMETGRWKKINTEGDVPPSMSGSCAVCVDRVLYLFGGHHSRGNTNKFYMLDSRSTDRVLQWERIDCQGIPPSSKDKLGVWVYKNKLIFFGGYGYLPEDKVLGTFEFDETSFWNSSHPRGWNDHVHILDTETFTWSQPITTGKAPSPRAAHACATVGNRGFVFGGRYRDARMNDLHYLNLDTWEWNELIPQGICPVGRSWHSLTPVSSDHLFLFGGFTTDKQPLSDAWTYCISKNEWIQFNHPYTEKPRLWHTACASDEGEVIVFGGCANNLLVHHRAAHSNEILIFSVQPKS
Test: KLHDC2 HTRF binding assay
Details: 1 nM KLHDC2 (residues 1-363), fluorescein-labeled diglycine peptide probe
experimental endpoint: IC50

# smiles input, experimental system, measured value
rows = [
    ("CC(C)c1cc(=O)n(CC(=O)O)cc1NC(=O)c1cccc(-c2cccnc2)c1", "truncated His-MBP-Tev-KLHDC2 (residues 1-363) (Homo sapiens, UniProt Q9Y2U9)", "0.05 to 0.5 µM"),
    ("O=C(O)Cn1cc(NC(=O)c2cccc(-c3cccc(Cl)c3)c2)ccc1=O", "truncated His-MBP-Tev-KLHDC2 (residues 1-363) (Homo sapiens, UniProt Q9Y2U9)", "0.5 to 5 µM"),
    ("Cc1cc(C(=O)Nc2ccc(=O)n(CC(=O)O)c2)sc1-c1cccnc1", "truncated His-MBP-Tev-KLHDC2 (residues 1-363) (Homo sapiens, UniProt Q9Y2U9)", "> 5 µM"),
    ("COc1cc(-c2ccc(F)c(CCCCCCCCCNC(=O)C[C@@H]3N=C(c4ccc(Cl)cc4)c4c(sc(C)c4C)-n4c(C)nnc43)c2)ccc1C(=O)Nc1ccc(=O)n(CC(=O)O)c1", "truncated His-MBP-Tev-KLHDC2 (residues 1-363) (Homo sapiens, UniProt Q9Y2U9)", "0.5 to 5 µM"),
    ("CN(CC1(C(=O)Nc2ccc(=O)n(CC(=O)O)c2)CC1)c1cccnc1", "truncated His-MBP-Tev-KLHDC2 (residues 1-363) (Homo sapiens, UniProt Q9Y2U9)", "> 5 µM"),
    ("NC(=O)Cc1ccc(-c2ccc(=O)n(CC(=O)O)c2)cc1", "truncated His-MBP-Tev-KLHDC2 (residues 1-363) (Homo sapiens, UniProt Q9Y2U9)", "> 5 µM"),
    ("O=C(O)Cn1cc(N2C[C@]3(CCCN(c4cccnc4)C3)CC2=O)ccc1=O", "truncated His-MBP-Tev-KLHDC2 (residues 1-363) (Homo sapiens, UniProt Q9Y2U9)", "> 5 µM"),
    ("CS(=O)(=O)Nc1cccc(CC(=O)O)c1", "truncated His-MBP-Tev-KLHDC2 (residues 1-363) (Homo sapiens, UniProt Q9Y2U9)", "> 5 µM"),
    ("NCCCCCCCCCc1cccc2c(-c3cccc(C(=O)Nc4ccc(=O)n(CC(=O)O)c4)c3)cncc12", "truncated His-MBP-Tev-KLHDC2 (residues 1-363) (Homo sapiens, UniProt Q9Y2U9)", "0.05 to 0.5 µM"),
]
